# assay-explanation: Stability studies (storage at 60 °C in closed bottles or at 40 °C / 75 % RH in an open bottle; related substances by HPLC)
# conditions-used: 2 weeks, 40°C/75 % RH, open; 20160 min
Where a name gives a salt, the structure may show the parent alone.
readout-name: Related Substances 2 W 40°C/75 % RH open (%)

P. N[C@@H](CC(=O)N1CCn2c(nnc2C(F)(F)F)C1)Cc1cc(F)c(F)cc1F [Q: HCl II]
Q. N[C@@H](CC(=O)N1CCn2c(nnc2C(F)(F)F)C1)Cc1cc(F)c(F)cc1F [A: Phosphate, Sitagliptin Phosphate]
Task: Looking at recorded values for Related Substances 2 W 40°C/75 % RH open, does P or Q come in lower? Give the chosen item's label as your response.
Result: Q
(Q: 0.21%, P: 0.36%)

a. N[C@@H](CC(=O)N1CCn2c(nnc2C(F)(F)F)C1)Cc1cc(F)c(F)cc1F [B: HCl I, Sitagliptin Hydrochloride Form I]
b. N[C@@H](CC(=O)N1CCn2c(nnc2C(F)(F)F)C1)Cc1cc(F)c(F)cc1F [H: Glycolate]
Task: Looking at recorded values for Related Substances 2 W 40°C/75 % RH open, does a or b come in lower? Give the chosen item's label as your response.
Result: a
(a: 0.05%, b: 0.24%)

1. N[C@@H](CC(=O)N1CCn2c(nnc2C(F)(F)F)C1)Cc1cc(F)c(F)cc1F [M: Phosphate H2O]
2. N[C@@H](CC(=O)N1CCn2c(nnc2C(F)(F)F)C1)Cc1cc(F)c(F)cc1F [Base, reference compound]
Task: Looking at recorded values for Related Substances 2 W 40°C/75 % RH open, does 1 or 2 come in lower? Give the chosen item's label as your response.
Result: 1
(1: 0.10%, 2: 0.27%)

* * *

# assay-explanation: Stability studies (storage at 60 °C in closed bottles or at 40 °C / 75 % RH in an open bottle; related substances by HPLC)
# conditions-used: 4 weeks, 40°C/75 % RH, open; 40320 min
Structures can show the parent of a compound that is named as a salt.
readout-name: Related Substances 4 w 40°C/75 % RH open (%)

N[C@@H](CC(=O)N1CCn2c(nnc2C(F)(F)F)C1)Cc1cc(F)c(F)cc1F [H: Glycolate] : 0.61
N[C@@H](CC(=O)N1CCn2c(nnc2C(F)(F)F)C1)Cc1cc(F)c(F)cc1F [B: HCl I, Sitagliptin Hydrochloride Form I] : 0.01
N[C@@H](CC(=O)N1CCn2c(nnc2C(F)(F)F)C1)Cc1cc(F)c(F)cc1F [O: Sulfate II] : 0.36
N[C@@H](CC(=O)N1CCn2c(nnc2C(F)(F)F)C1)Cc1cc(F)c(F)cc1F [E: Sulfate I, Sitagliptin Sulfate Form I] : 0.06
N[C@@H](CC(=O)N1CCn2c(nnc2C(F)(F)F)C1)Cc1cc(F)c(F)cc1F [Base, reference compound] : 0.39

1. N[C@@H](CC(=O)N1CCn2c(nnc2C(F)(F)F)C1)Cc1cc(F)c(F)cc1F [N: Mesylate II]
2. N[C@@H](CC(=O)N1CCn2c(nnc2C(F)(F)F)C1)Cc1cc(F)c(F)cc1F [Q: HCl II]
3. N[C@@H](CC(=O)N1CCn2c(nnc2C(F)(F)F)C1)Cc1cc(F)c(F)cc1F [A: Phosphate, Sitagliptin Phosphate]
4. N[C@@H](CC(=O)N1CCn2c(nnc2C(F)(F)F)C1)Cc1cc(F)c(F)cc1F [C: Lactate, Sitagliptin Lactate]
Task: Please give the order of these compounds when sorted by Related Substances 4 w 40°C/75 % RH open, largest value leading. In your reply, arrange the labels in the requested order.
Result: 2, 4, 3, 1
